Just for reference, patent US10610520B2 is where these values come from.

tested-on: His-hMAGL (recombinant polyhistidine tagged human MAGL protein) (Homo sapiens, UniProt Q99685)
Construct: made in house; host or cells: E. coli BL21(DE3)
Sequence (Q99685 whole entry): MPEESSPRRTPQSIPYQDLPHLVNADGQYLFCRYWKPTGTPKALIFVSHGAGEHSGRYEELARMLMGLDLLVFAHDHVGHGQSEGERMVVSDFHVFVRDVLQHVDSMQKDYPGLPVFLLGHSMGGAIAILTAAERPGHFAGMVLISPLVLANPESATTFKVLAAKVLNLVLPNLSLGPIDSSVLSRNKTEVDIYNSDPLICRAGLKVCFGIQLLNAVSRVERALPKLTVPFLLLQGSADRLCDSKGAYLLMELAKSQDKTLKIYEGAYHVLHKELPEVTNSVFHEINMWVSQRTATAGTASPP
experiment-notes: Measurement of MAGL inhibitory activity (arachidonic acid production from 2-arachidonylglycerol, RapidFire-mass spectrometry)
Assay type: biochemical
condition-parameters: MAGL inhibitory rate, test compound 10 μM, 60 min preincubation, 2-arachidonylglycerol substrate
measured-parameter: inhibition at 10 µM (%)

[
  {
    "compound": "O=C1CCC2(CN(C(=O)c3ccc(-c4cccc(OC(F)(F)F)c4)cc3)C2)N1",
    "inhibition at 10 µM [%]": 98
  },
  {
    "compound": "O=C1CCC2(CN(C(=O)c3sc4cc(-c5cc(F)ccc5F)ccc4c3Cl)C2)N1",
    "inhibition at 10 µM [%]": 100
  },
  {
    "compound": "O=C1CCC2(CN(C(=O)c3cc4cc(OC(F)(F)F)ccc4s3)C2)N1",
    "inhibition at 10 µM [%]": 98
  },
  {
    "compound": "O=C1NC2(CCN(C(=O)c3sc4cc(F)cc(Cl)c4c3Cl)C2)CO1 (stereo not drawn)",
    "inhibition at 10 µM [%]": 100
  },
  {
    "compound": "O=C1NC2(CO1)CN(C(=O)[C@H]1C[C@H](OCc3ccc(C(F)(F)F)cc3F)C1)C2",
    "inhibition at 10 µM [%]": 100
  },
  {
    "compound": "O=C1CCC2(CN(C(=O)c3ccc(-c4ccccc4)cc3Cl)C2)N1",
    "inhibition at 10 µM [%]": 81
  },
  {
    "compound": "O=C1CCC2(CN(C(=O)c3sc4cc(-c5cc(F)cc(F)c5)ccc4c3Cl)C2)N1",
    "inhibition at 10 µM [%]": 99
  },
  {
    "compound": "O=C1CCC2(CN(C(=O)[C@H]3C[C@@H](COc4ccc(F)cc4Cl)C3)C2)N1",
    "inhibition at 10 µM [%]": 91
  },
  {
    "compound": "O=C1NC2(CO1)CN(C(=O)c1sc3cccc(OC(F)(F)F)c3c1Cl)C2",
    "inhibition at 10 µM [%]": 101
  },
  {
    "compound": "COc1cccc(-c2ccc3c(Cl)c(C(=O)N4CC5(CCC(=O)N5)C4)sc3c2)c1",
    "inhibition at 10 µM [%]": 100
  },
  {
    "compound": "O=C1CCC2(CN(C(=O)c3cc4cc(Br)ccc4s3)C2)N1",
    "inhibition at 10 µM [%]": 86
  },
  {
    "compound": "COc1ccc2c(Cl)c(C(=O)N3CC4(CCC(=O)N4)C3)sc2c1",
    "inhibition at 10 µM [%]": 99
  },
  {
    "compound": "Cc1sccc1-c1ccc2c(Cl)c(C(=O)N3CC4(CCC(=O)N4)C3)sc2c1",
    "inhibition at 10 µM [%]": 101
  },
  {
    "compound": "O=C1CCC2(CN(C(=O)c3sc4cc(-c5cc(F)ccc5Cl)ccc4c3Cl)C2)N1",
    "inhibition at 10 µM [%]": 100
  },
  {
    "compound": "O=C1NC2(CO1)CN(C(=O)c1sc3cc(F)cc(F)c3c1Cl)C2",
    "inhibition at 10 µM [%]": 100
  },
  {
    "compound": "Cc1c(C(=O)N2CC3(CCC(=O)N3)C2)sc2cccc(F)c12",
    "inhibition at 10 µM [%]": 96
  },
  {
    "compound": "O=C1CCC2(CN(C(=O)c3sc4cc(C(F)(F)F)ccc4c3F)C2)N1",
    "inhibition at 10 µM [%]": 97
  },
  {
    "compound": "O=C1NC2(CCO1)CN(C(=O)c1sc3cccc(OC(F)(F)F)c3c1Cl)C2",
    "inhibition at 10 µM [%]": 99
  }
]
